Where do these numbers come from? They come from paper PMC12540964.

target: α-glucosidase (Saccharomyces cerevisiae, UniProt P53341)
Sequence (P53341 whole entry): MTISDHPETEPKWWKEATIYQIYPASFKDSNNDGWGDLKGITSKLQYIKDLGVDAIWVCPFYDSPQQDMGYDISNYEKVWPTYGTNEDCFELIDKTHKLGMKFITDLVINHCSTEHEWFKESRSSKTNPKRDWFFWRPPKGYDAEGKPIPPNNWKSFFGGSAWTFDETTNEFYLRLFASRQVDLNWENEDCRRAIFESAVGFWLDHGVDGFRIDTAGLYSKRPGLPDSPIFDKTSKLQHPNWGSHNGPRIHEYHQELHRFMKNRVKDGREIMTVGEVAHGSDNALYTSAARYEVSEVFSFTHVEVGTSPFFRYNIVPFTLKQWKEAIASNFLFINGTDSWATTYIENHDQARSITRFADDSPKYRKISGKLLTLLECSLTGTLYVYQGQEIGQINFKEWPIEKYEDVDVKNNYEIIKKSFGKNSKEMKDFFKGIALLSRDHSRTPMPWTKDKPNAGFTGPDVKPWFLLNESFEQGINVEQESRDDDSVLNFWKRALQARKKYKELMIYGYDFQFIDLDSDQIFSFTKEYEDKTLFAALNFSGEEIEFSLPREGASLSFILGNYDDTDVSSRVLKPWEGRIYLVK
# IC50 per entry
Kindly answer with a numeric value in mM, unit omitted.

Q) Fill blank: measured IC50 of the compound CCCCCCCCCCCCCCCCCCCCCCC [Tricosane, tricosane] is ____.
A) 0.592

Q) Request the reported IC50 associated with CC1CCC(C(C)C)C(O)C1 (stereo not drawn) [Menthol, menthol]
A) 1.17

Q) Recorded IC50 for Cc1ccc(C(C)C)cc1O [Carvacrol, carvacrol] , please?
A) 1.34
